Target: human DGKζ (Homo sapiens, UniProt Q13574)
Construct: TVMV protease cleavage site (C); Hexa-His (C); made in house; host or cells: Sf9 insect cells (baculovirus, Bac-to-Bac)
Sequence (Q13574 with tags, fused parts or gaps isoform Q13574-4): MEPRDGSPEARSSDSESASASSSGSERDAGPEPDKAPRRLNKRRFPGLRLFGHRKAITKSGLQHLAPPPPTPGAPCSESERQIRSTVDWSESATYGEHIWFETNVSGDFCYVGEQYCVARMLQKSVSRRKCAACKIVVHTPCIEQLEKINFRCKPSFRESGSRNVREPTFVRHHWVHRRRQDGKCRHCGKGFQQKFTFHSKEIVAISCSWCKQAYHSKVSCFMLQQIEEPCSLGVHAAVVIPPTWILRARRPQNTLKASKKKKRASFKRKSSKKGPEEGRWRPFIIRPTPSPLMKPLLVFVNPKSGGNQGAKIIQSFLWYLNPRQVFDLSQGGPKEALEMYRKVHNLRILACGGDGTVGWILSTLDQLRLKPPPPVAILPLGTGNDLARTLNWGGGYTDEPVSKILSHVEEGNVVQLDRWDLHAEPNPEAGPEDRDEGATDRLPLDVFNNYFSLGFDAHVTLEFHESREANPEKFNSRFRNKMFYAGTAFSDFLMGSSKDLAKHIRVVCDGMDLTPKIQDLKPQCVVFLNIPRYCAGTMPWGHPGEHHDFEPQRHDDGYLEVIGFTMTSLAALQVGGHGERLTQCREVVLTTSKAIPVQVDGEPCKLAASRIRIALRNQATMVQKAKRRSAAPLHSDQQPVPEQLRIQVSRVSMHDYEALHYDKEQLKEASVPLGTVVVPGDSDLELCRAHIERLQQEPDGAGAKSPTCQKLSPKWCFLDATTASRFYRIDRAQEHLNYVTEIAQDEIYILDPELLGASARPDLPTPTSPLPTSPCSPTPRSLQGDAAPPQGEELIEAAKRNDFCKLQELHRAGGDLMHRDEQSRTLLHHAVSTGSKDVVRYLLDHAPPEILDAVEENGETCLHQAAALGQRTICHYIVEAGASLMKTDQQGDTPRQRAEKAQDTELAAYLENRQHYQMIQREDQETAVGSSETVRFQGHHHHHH
Experiment: DGKζ LIPGLO assay (extruded liposome substrate), in vitro DGK inhibition
Type: biochemical
Conditions: liposome (LIPGLO) assay; read-out: DGKz LIPGLO IC50
The label class 1 is reserved for IC50 strictly under 2 µM; class 0 covers values equal to or above it.

Here are 2 compounds together with their reported answers.
Compound	Tested Target	Cat
CC[C@H]1CN(C(c2ccc(Cl)cc2)c2ccc(F)cn2)[C@H](CC)CN1c1cc(=O)n(C)c2ccc(C#N)nc12 (single isomer, unassigned) [Example 1034]	human DGKζ (Homo sapiens, UniProt Q13574)	class 1
COC(=O)C1CN(c2cc(=O)n(C)c3ccc(C#N)nc23)CCN1C(c1ccc(F)cc1)c1ccc(F)cc1 (single isomer, unassigned) [Example 39]	human DGKζ (Homo sapiens, UniProt Q13574)	class 0

Hello, I'm reviewing records and need to know if IC50 of C[C@H]1CN(C(c2ccc(F)cc2)c2ccc(F)cc2)[C@H](CN2CC(O)C2)CN1c1cc(=O)n(C)c2ccc(C#N)nc12 is below 2 µM. Could you check? class 0

Hello, I'm reviewing records and need to know if IC50 of CC(c1ccc(OC(F)(F)F)cc1)N1C[C@@H](C)N(c2cc(=O)n(C)c3ccc(C#N)nc23)C[C@@H]1CO (single isomer, unassigned) [Example 1180] is below 2 µM. Could you check? class 1

Hello, I'm reviewing records and need to know if IC50 of C[C@@H]1CN(c2c(F)c(=O)n(C)c3ccc(C#N)nc23)[C@@H](C)CN1C(c1ccc(F)cc1)c1cccc(F)c1 (single isomer, unassigned) [Example 331] is below 2 µM. Could you check? class 1

Hello, I'm reviewing records and need to know if IC50 of CC[C@@H]1CN(c2cc(=O)n(C)c3ccc(C#N)nc23)[C@@H](C)CN1C(C)c1ccc(F)cc1F (single isomer, unassigned) [Example 1088] is below 2 µM. Could you check? class 0

----------
Molecular target: human DGKα (Homo sapiens)
Construct: TVMV protease cleavage site (C); Hexa-His (C); made in house; host or cells: Sf9 insect cells (baculovirus, Bac-to-Bac)
Sequence (P23743 with tags, fused parts or gaps): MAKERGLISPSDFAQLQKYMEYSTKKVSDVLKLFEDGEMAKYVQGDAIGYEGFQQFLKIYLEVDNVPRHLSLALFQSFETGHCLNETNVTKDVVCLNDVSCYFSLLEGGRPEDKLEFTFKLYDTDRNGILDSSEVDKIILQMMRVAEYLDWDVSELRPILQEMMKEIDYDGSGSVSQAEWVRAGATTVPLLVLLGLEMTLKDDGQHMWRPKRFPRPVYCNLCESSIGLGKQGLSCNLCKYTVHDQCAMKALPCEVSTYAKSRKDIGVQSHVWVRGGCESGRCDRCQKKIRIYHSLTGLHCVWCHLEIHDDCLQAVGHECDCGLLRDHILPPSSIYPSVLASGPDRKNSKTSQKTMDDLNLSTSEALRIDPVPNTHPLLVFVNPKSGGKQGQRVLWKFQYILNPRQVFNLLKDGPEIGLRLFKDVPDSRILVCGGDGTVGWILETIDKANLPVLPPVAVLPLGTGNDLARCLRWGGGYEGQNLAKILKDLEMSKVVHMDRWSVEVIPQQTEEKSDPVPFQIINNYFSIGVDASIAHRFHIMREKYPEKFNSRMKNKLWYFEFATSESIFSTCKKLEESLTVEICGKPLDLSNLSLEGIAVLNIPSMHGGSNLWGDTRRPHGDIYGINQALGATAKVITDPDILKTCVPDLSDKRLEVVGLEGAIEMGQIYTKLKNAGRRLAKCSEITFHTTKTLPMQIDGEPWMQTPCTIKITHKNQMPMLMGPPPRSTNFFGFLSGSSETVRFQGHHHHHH
Assay: DGKα LIPGLO assay (extruded liposome substrate), in vitro DGK inhibition
Assay type: biochemical
Settings: liposome (LIPGLO) assay; read-out: DGKa LIPGLO IC50
The following compounds are shown together with reported pIC50 values.
Convention used: pIC50 is expressed as -log10 of the molar concentration.

Compound	pIC50
Cn1c(=O)cc(N2CCN(C(c3ccc(F)cc3)c3ccc(F)cc3)CC2C(=O)O)c2nc(C#N)ccc21 (stereo not drawn)	4.09
CCC(c1ccc(OC(F)(F)F)cc1F)N1C[C@H](C)N(c2cc(=O)n(C)c3ccc(C#N)nc23)C[C@H]1C (single isomer, unassigned) [Example 440]	7.09
CC(C)OC(=O)C1CN(c2cc(=O)n(C)c3ccc(C#N)nc23)CCN1C(c1ccc(F)cc1)c1ccc(F)cc1 (single isomer, unassigned) [Example 63]	3.62
COCc1cc(C(C)N2C[C@H](C)N(c3cc(=O)n(C)c4ccc(C#N)nc34)C[C@H]2C)ccc1F (single isomer, unassigned) [Example 1317]	5.10
COc1ccc(C(C)N2C[C@H](C)N(c3cc(=O)n(C)c4ccc(C#N)nc34)C[C@H]2C)cc1OCCN1CCOCC1 (stereo partly drawn) [Example 1304]	3.96

Look up pIC50: C[C@H]1CN(C(c2ccc(F)cc2)c2ccon2)[C@H](CO)CN1c1cc(=O)n(C)c2ccc(C#N)nc12 (single isomer, unassigned) [Example 1392] 5.72

Look up pIC50: Cc1nccc(C(c2ccc(F)cc2)N2C[C@H](C)N(c3cc(=O)n(C)c4ccc(C#N)nc34)C[C@H]2C)n1 (single isomer, unassigned) [Example 401] 5.11

Look up pIC50: C[C@@H]1CN(c2cc(=O)n(C)c3ccc(C#N)nc23)[C@@H](C)CN1C(c1ccc(F)cc1)c1cncnc1 (single isomer, unassigned) [Example 394] 4.38

Look up pIC50: C[C@@H]1CN(c2cc(=O)n(C)c3ccc(C#N)nc23)[C@@H](C)CN1Cc1ccc(OC(F)(F)F)cc1F (single isomer, unassigned) [Example 624] 6.18

Look up pIC50: CC[C@@H]1CN(c2cc(=O)n(C)c3ccc(C#N)nc23)[C@@H](C)CN1C(C)c1ccc(F)c(F)c1 (single isomer, unassigned) [Example 1091] 6.64

Look up pIC50: Cc1ccc(C(c2ccc(C#N)cc2)N2C[C@H](C)N(c3c(F)c(=O)n(C)c4ccc(C#N)nc34)C[C@H]2C)cc1 (stereo partly drawn) 5.57

Look up pIC50: C[C@@H]1CN(c2c(C#N)c(=O)n(C)c3ccc(C#N)nc23)CCN1C(c1ccc(F)cc1)c1cn(C)cn1 (single isomer, unassigned) [Example 1027] 4.54
